Biological target: UniProt:P25103
Assay: Inhibitory effect on human NK1 receptor (substance P-induced increase in intracellular calcium concentration)
Type: cell-based
Details: substance P 1 μM, compound 0.1 μM; read-out: SPRR (%), Substance P-Response Remaining (intracellular calcium concentration)
measured-parameter: remaining activity at 0.1 µM (%)

Cc1cc(F)ccc1-c1cc(C2CCCC(CC(=O)O)C2)ncc1N(C)C(=O)C(C)(C)c1cc(C(F)(F)F)cc(C(F)(F)F)c1 (stereo not drawn) :: 36
Cc1cc(F)ccc1-c1cc([C@H]2CC[C@H](C(C)(C)C(=O)O)CC2)ncc1N(C)C(=O)C(C)(C)c1cc(C(F)(F)F)cc(C(F)(F)F)c1 :: 5.4

P: Cc1cc(F)ccc1-c1cc(C2CCC(C(C)C(=O)O)CC2)ncc1N(C)C(=O)C(C)(C)c1cc(C(F)(F)F)cc(C(F)(F)F)c1 (stereo not drawn)
Q: Cc1cc(F)ccc1-c1cc([C@H]2CC[C@@H](C(C)(C)C(=O)O)CC2)ncc1N(C)C(=O)C(C)(C)c1cc(C(F)(F)F)cc(C(F)(F)F)c1
Incoming: Among P and Q , which shows a numerically higher remaining activity at 0.1 µM result? Indicate your choice by writing its label.
Outgoing: Q

----------
Target: human CYP3A4 (Homo sapiens (Human), UniProt P08684)
Sequence (P08684 whole entry): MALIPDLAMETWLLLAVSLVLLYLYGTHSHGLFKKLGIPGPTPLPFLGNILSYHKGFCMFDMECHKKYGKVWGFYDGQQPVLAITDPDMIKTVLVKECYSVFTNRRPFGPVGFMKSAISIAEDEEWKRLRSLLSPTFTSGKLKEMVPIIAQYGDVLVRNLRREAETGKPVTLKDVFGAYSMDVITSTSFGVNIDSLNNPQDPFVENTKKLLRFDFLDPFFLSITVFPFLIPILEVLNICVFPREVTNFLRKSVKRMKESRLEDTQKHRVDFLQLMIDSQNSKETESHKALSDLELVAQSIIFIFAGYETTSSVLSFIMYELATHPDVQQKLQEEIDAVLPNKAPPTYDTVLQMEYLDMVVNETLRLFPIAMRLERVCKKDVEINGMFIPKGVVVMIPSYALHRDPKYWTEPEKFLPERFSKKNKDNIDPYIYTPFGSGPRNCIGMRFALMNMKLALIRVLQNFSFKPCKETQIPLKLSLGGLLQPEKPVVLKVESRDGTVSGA
Test: Inhibitory effect on CYP3A4
Assay type: in vitro ADME
Settings: 30-minute pre-incubation, Luciferin-IPA substrate; read-out: IC50 (μM), CYP3A4 inhibition
measured-parameter: IC50 (µM)

Cc1cc(F)ccc1-c1cc(C2(C)CCCC(CC(=O)O)C2)ncc1N(C)C(=O)C(C)(C)c1cc(C(F)(F)F)cc(C(F)(F)F)c1 (stereo not drawn) :: 7.1
Cc1cc(F)ccc1-c1cc(C2CCC3(CC2)CC3C(=O)O)ncc1N(C)C(=O)C(C)(C)c1cc(C(F)(F)F)cc(C(F)(F)F)c1 (stereo not drawn) :: 11
Cc1cc(F)ccc1-c1cc([C@H]2CC[C@@H](CC(=O)O)CC2)nc(C#N)c1N(C)C(=O)C(C)(C)c1cc(C(F)(F)F)cc(C(F)(F)F)c1 :: 4.2

a: Cc1cc(F)ccc1-c1cc(C2CCC(O)(CC(=O)O)CC2)ncc1N(C)C(=O)C(C)(C)c1cc(C(F)(F)F)cc(C(F)(F)F)c1 (stereo not drawn)
b: Cc1cc(F)ccc1-c1cc(C2CCC(CC(=O)O)CC2)ncc1N(C)C(=O)C(C)(CO)c1cc(C(F)(F)F)cc(C(F)(F)F)c1 (stereo not drawn)
Incoming: Decide: a or b , by lowest recorded IC50. Indicate your choice by writing its label.
Outgoing: a

----------
Assay: Measurement of drug concentrations in the brain after foot-tapping
Assay type: in vivo
Conditions: male gerbil, 0.1 mg/kg iv, after foot-tapping was finished
Experimental: A male gerbil (Japan SLC) was anesthetized with isoflurane, and 0.1 mg/kg of a test compound was administered from the jugular vein. After four hours. […] After the administration, the gerbil was moved to an observation cage, and the foot-tapping period during 30 minutes after the recovery of the righting reflex was measured. The foot-tapping inhibition rate (%) of each test compound was calculated by the following equation. […]
measured-parameter: Conc. (nM), drug concentration in the brain

Cc1ccccc1-c1cc(C2CCC(CC(=O)O)CC2)nc(C#N)c1N(C)C(=O)C(C)(C)c1cc(C(F)(F)F)cc(C(F)(F)F)c1 (stereo not drawn) :: 64

P: Cc1cc(F)ccc1-c1cc(C2CCC(CC(=O)O)CC2)nc(C)c1N(C)C(=O)C(C)(C)c1cc(C(F)(F)F)cc(C(F)(F)F)c1 (stereo not drawn)
Q: Cc1cc(F)ccc1-c1cc([C@H]2CC[C@@H](CC(=O)O)CC2)nc(C#N)c1N(C)C(=O)C(C)(C)c1cc(C(F)(F)F)cc(C(F)(F)F)c1
Incoming: Decide: P or Q , by lowest recorded Conc. (nM), drug concentration in the brain. Indicate your choice by writing its label.
Outgoing: P
(P: 47 nM, Q: 92 nM)

----------
Target: human NK1 receptor (Homo sapiens (Human), UniProt P25103)
Sequence (P25103 whole entry): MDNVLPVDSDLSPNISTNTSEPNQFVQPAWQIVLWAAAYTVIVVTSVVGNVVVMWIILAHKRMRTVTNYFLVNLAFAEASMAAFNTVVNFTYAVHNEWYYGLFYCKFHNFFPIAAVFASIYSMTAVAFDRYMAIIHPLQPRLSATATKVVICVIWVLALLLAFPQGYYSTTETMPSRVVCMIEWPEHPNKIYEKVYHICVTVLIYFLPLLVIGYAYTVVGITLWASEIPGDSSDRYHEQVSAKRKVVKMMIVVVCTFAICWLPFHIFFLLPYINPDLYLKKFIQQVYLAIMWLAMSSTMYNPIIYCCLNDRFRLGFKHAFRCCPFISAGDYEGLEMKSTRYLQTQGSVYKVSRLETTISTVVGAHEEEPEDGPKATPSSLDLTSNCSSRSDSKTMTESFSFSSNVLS
Experiment: Inhibitory effect on human NK1 receptor (substance P-induced increase in intracellular calcium concentration)
Type: cell-based
Details: substance P 1 μM, compound 0.1 μM; read-out: SPRR (%), Substance P-Response Remaining (intracellular calcium concentration)
measured-parameter: remaining activity at 0.1 µM (%)

I: Cc1cc(F)ccc1-c1cc(C2CCC(CC(=O)O)CC2)nc(C#N)c1N(C)C(=O)C(C)(C)c1cc(C(F)(F)F)cc(C(F)(F)F)c1 (stereo not shown) [Example 8]
II: Cc1cc(F)ccc1-c1cc([C@H]2CC[C@H](CC(=O)O)CC2)ncc1N(C)C(=O)C(C)(C)c1cc(C(F)(F)F)cc(C(F)(F)F)c1 [Example 13]
Incoming: Among I and II , which shows a numerically higher remaining activity at 0.1 µM result? Indicate your choice by writing its label.
Outgoing: I

----------
Molecular target: human CYP3A4 (Homo sapiens (Human))
Experiment: Inhibitory effect on CYP3A4
Type: in vitro ADME
Conditions: 30-minute pre-incubation, Luciferin-IPA substrate; read-out: IC50 (μM), CYP3A4 inhibition
measured-parameter: IC50 (µM)

Some solved cases for reference:
Cc1cc(F)ccc1-c1cc(C2CCC(C(C)C(=O)O)CC2)ncc1N(C)C(=O)C(C)(C)c1cc(C(F)(F)F)cc(C(F)(F)F)c1 (stereo not shown) :: 11
Cc1cc(F)ccc1-c1cc(C2CCC(CC(=O)O)CC2)nc(C#N)c1N(C)C(=O)C(C)(C)c1cc(C(F)(F)F)cc(C(F)(F)F)c1 (stereo not shown) :: 6.1
Cc1cc(F)ccc1-c1cc([C@H]2CC[C@@H](CC(=O)O)CC2)ncc1N(C)C(=O)C(C)(C)c1cc(C(F)(F)F)cc(C(F)(F)F)c1 :: 7.5
Cc1cc(F)ccc1-c1cc(C2CCC(CC(=O)O)CC2)nc(C)c1N(C)C(=O)C(C)(C)c1cc(C(F)(F)F)cc(C(F)(F)F)c1 (stereo not shown) :: 4.9
Cc1cc(F)ccc1-c1cc([C@H]2CC[C@H](CC(=O)O)CC2)ncc1N(C)C(=O)C(C)(C)c1cc(C(F)(F)F)cc(C(F)(F)F)c1 :: 8.2

A: Cc1cc(F)ccc1-c1cc(C2CCC(C(=O)O)CC2)ncc1N(C)C(=O)C(C)(C)c1cc(C(F)(F)F)cc(C(F)(F)F)c1 (stereo not shown)
B: Cc1ccccc1-c1cc(C2CCC(CC(=O)O)CC2)nc(C#N)c1N(C)C(=O)C(C)(C)c1cc(C(F)(F)F)cc(C(F)(F)F)c1 (stereo not shown)
Incoming: Decide: A or B , by lowest recorded IC50. Indicate your choice by writing its label.
Outgoing: B

----------
Biological target: UniProtKB P25103
Experiment: Affinity for human NK1 receptor (125I-substance P receptor binding test, membrane fraction)
Conditions: membrane fraction of human NK1 receptor-expressing 293T cells; read-out: IC50 (nM), concentration required for 50% inhibition of 125I-substance P binding
measured-parameter: IC50 (nM)

Cc1cc(F)ccc1-c1cc([C@H]2CC[C@@H](CC(=O)O)CC2)ncc1N(C)C(=O)C(C)(C)c1cc(C(F)(F)F)cc(C(F)(F)F)c1 [Example 14] :: 2.21

I: Cc1ccccc1-c1cc(C2CCC(CC(=O)O)CC2)nc(C#N)c1N(C)C(=O)C(C)(C)c1cc(C(F)(F)F)cc(C(F)(F)F)c1 (stereo not drawn) [Example 16]
II: Cc1cc(F)ccc1-c1cc(C2CCC(O)(CC(=O)O)CC2)ncc1N(C)C(=O)C(C)(C)c1cc(C(F)(F)F)cc(C(F)(F)F)c1 (stereo not drawn) [Example 6]
Incoming: Among I and II , which shows a numerically higher IC50 result? Indicate your choice by writing its label.
Outgoing: I
(I: 2.78 nM, II: 1 nM)

----------
Target: UniProt P08684
Assay: Inhibitory effect on CYP3A4
Assay type: in vitro ADME
Details: 30-minute pre-incubation, Luciferin-IPA substrate; read-out: IC50 (μM), CYP3A4 inhibition
measured-parameter: IC50 (µM)

Some solved cases for reference:
Cc1ccccc1-c1cc(C2CCC(CC(=O)O)CC2)ncc1N(C)C(=O)C(C)(C)c1cc(C(F)(F)F)cc(C(F)(F)F)c1 (stereo not shown) :: 6.9
Cc1cc(F)ccc1-c1cc([C@H]2CC[C@H](C(C)(C)C(=O)O)CC2)ncc1N(C)C(=O)C(C)(C)c1cc(C(F)(F)F)cc(C(F)(F)F)c1 :: 2.7
Cc1cc(F)ccc1-c1cc(C2CCC(CCC(=O)O)CC2)ncc1N(C)C(=O)C(C)(C)c1cc(C(F)(F)F)cc(C(F)(F)F)c1 (stereo not shown) :: 6.8

1: Cc1cc(F)ccc1-c1cc([C@H]2CC[C@@H](C(C)(C)C(=O)O)CC2)ncc1N(C)C(=O)C(C)(C)c1cc(C(F)(F)F)cc(C(F)(F)F)c1
2: Cc1cc(F)ccc1-c1cc([C@H]2CC[C@H](CC(=O)O)CC2)nc(C#N)c1N(C)C(=O)C(C)(C)c1cc(C(F)(F)F)cc(C(F)(F)F)c1
3: Cc1cc(F)ccc1-c1cc(C2CCCC(CC(=O)O)C2)ncc1N(C)C(=O)C(C)(C)c1cc(C(F)(F)F)cc(C(F)(F)F)c1 (stereo not shown)
4: Cc1cc(F)ccc1-c1cc(C2CCC(CC(=O)O)CC2)nc(Cl)c1N(C)C(=O)C(C)(C)c1cc(C(F)(F)F)cc(C(F)(F)F)c1 (stereo not shown)
Incoming: Provide the items ranked by increasing IC50. Sort the labels as requested; that list is your answer.
Outgoing: 1, 4, 2, 3
(1: 2.2 µM, 4: 3.3 µM, 2: 5.5 µM, 3: 9.4 µM)
